target: CDK4/Cyclin D1 (Homo sapiens (Human), UniProt P11802); assay: CDK4/CyclinD1 kinase inhibitory activity (Caliper mobility shift)
Sequence (P11802 whole entry): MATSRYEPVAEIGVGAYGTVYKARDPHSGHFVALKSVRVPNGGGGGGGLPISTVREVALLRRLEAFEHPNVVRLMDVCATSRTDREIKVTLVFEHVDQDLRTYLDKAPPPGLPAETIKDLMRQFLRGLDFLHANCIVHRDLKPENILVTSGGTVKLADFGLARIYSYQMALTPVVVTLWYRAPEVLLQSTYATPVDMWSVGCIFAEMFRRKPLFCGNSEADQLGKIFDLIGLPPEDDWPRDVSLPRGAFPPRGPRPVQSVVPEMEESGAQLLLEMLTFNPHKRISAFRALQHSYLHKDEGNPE
Sequence (P24385 whole entry partner): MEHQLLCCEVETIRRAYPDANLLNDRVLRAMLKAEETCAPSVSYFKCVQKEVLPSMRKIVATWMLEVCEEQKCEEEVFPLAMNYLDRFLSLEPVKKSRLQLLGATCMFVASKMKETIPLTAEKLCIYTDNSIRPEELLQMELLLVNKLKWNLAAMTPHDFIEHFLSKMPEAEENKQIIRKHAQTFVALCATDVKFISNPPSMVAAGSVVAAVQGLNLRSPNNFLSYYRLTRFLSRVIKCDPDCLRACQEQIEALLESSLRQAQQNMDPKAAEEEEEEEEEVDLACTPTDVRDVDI
reported.metric: IC50

Recorded IC50, per entry:
Cn1cc(S(=O)(=O)N2CCC(Nc3ncc(C#N)c(O[C@@H]4CCC(F)(F)C[C@]4(C)O)n3)CC2)cn1 (relative stereo) [Example 7a]	< 10 nM
[2H]C([2H])([2H])NS(=O)(=O)c1ccc(Nc2ncc(C(F)(F)F)c(O[C@H]3CCOC[C@H]3O)n2)c(F)c1 (single isomer, unassigned) [Example 101a]	≥ 1000 nM
C=Cc1cnc(Nc2ccc(S(N)(=O)=O)cc2)nc1OC1CCCC1O (single isomer, unassigned) [Example 155a]	100 to 1000 nM

Lookup result for [2H]C([2H])([2H])NS(=O)(=O)c1ccc(Nc2ncc(C(F)(F)F)c(OC3CCOCCC3O)n2)cc1 (single isomer, unassigned) [Example 102a] ; measured IC50: ≥ 1000 nM

Lookup result for CC1(O)CCCCC1Oc1nc(Nc2ccc(S(N)(=O)=O)cc2)ncc1C#N (single isomer, unassigned) [Example 24a] ; measured IC50: < 10 nM

Lookup result for Cn1cnc(S(=O)(=O)N2CCC(Nc3ncc(C#N)c(OC4CCCC4(C)O)n3)CC2)n1 (single isomer, unassigned) [Example 51b] ; measured IC50: 100 to 1000 nM

====

target: CDK2/CyclinE1 (Homo sapiens (Human), UniProt P24941); assay: CDK2/CyclinE1 kinase inhibitory activity (Caliper mobility shift); conditions: read-out: CDK2/Cyclin El IC50
pIC50: −log10 of the molar value.
pIC50 by entry:

Recorded pIC50, per entry:
CO[C@H]1CCCN(c2nc(Nc3ccc(S(N)(=O)=O)cc3)ncc2C#N)C1 [Example 80]	7.00 to 8.00
C[C@H]1CCCCN1c1nc(Nc2ccc(S(N)(=O)=O)cc2)ncc1F [Example 88]	> 8.00
CNS(=O)(=O)c1ccc(Nc2ncc(Cl)c(OC3CCCC3O)n2)cc1 (single isomer, unassigned) [Example 137b]	> 8.00
CNS(=O)(=O)c1ccc(Nc2ncc(Br)c(OC3CCCC3O)n2)cc1 (single isomer, unassigned) [Example 142b]	> 8.00
N#Cc1cnc(Nc2ccc(S(N)(=O)=O)cc2)nc1-c1ccccc1 [Example 93]	7.00 to 8.00

Lookup result for N#Cc1cnc(Nc2ccc(S(=O)(=O)NC3CC(F)C3)cc2)nc1OC1CCCCC1O (single isomer, unassigned) [Example 31b] ; measured pIC50: 7.00 to 8.00

Lookup result for C[C@@H]1CC[C@H](O)CN1c1nc(Nc2ccc(S(N)(=O)=O)cc2)ncc1C#N [Example 77] ; measured pIC50: > 8.00

Lookup result for C[C@H]1CCCCN1c1nc(Nc2ccc(S(N)(=O)=O)cc2)ncc1C#N [Example 74] ; measured pIC50: > 8.00

====

molecular target: CDK4/Cyclin D1 (Homo sapiens (Human)); assay: CDK4/CyclinD1 kinase inhibitory activity (Caliper mobility shift)
IC50 by entry:

Recorded IC50, per entry:
CC(C)NS(=O)(=O)c1ccc(Nc2ncc(C3CC3)c(O[C@@H]3CCC[C@@H]3O)n2)cc1 (single isomer, unassigned) [Example 134a]	100 to 1000 nM
CNS(=O)(=O)N1CCC(Nc2ncc(C#N)c(OCC3(C)CCCC3)n2)CC1	< 10 nM
N#Cc1cnc(Nc2ccc(S(=O)(=O)NC3CCC3)cc2)nc1OC1CCC[C@H]1O (mixture of isomers)	100 to 1000 nM

Hey, CDK4/Cyclin D1 (Homo sapiens (Human)) data for CNS(=O)(=O)N1CCC(Nc2ncc(C(F)(F)F)c(OC3CCCCCC3)n2)CC1 : IC50 came out at < 10 nM

Hey, CDK4/Cyclin D1 (Homo sapiens (Human)) data for Cn1cc(S(=O)(=O)N2CCC(Nc3ncc(C#N)c(OCC4(C)CCCC4)n3)CC2)cn1 : IC50 came out at < 10 nM

Hey, CDK4/Cyclin D1 (Homo sapiens (Human)) data for [2H]C([2H])([2H])NS(=O)(=O)c1ccc(Nc2ncc(C(F)(F)F)c(O[C@H]3CCOC[C@H]3O)n2)cc1 (single isomer, unassigned) [Example 100a] : IC50 came out at 100 to 1000 nM

Hey, CDK4/Cyclin D1 (Homo sapiens (Human)) data for COCCS(=O)(=O)N1CCC(Nc2ncc(C#N)c(OCC3(C)CCCC3)n2)CC1 : IC50 came out at < 10 nM

Hey, CDK4/Cyclin D1 (Homo sapiens (Human)) data for [2H]C([2H])([2H])NS(=O)(=O)c1ccc(Nc2ncc(Cl)c(OC3COCC3(C)O)n2)cc1 (single isomer, unassigned) [Example 140a] : IC50 came out at 100 to 1000 nM

====

pIC50 by entry:
molecular target: CDK4/Cyclin D1 (Homo sapiens (Human), UniProt P11802); experiment: CDK4/CyclinD1 kinase inhibitory activity (Caliper mobility shift)
pIC50: −log10 of the molar value.

Recorded pIC50, per entry:
[2H]C([2H])([2H])NS(=O)(=O)c1ccc(Nc2ncc(C(F)(F)F)c(O[C@H]3CCCOC[C@H]3O)n2)cc1 (single isomer, unassigned) [Example 103b]	≤ 6.00
[2H]C([2H])([2H])NS(=O)(=O)c1ccc(Nc2ncc(C(=C)F)c(O[C@@H]3CCC[C@@H]3O)n2)cc1 (single isomer, unassigned) [Example 135a]	6.00 to 7.00

Lookup result for CNS(=O)(=O)c1ccc(Nc2ncc(C(F)(F)F)c(OC3CCOCC3O)n2)cc1 (single isomer, unassigned) [Example 116a] ; measured pIC50: 6.00 to 7.00

====

target: CDK4/Cyclin D1 (Homo sapiens (Human), UniProt P11802); assay: CDK4/CyclinD1 kinase inhibitory activity (Caliper mobility shift)
pIC50: −log10 of the molar value.
reported.metric: pIC50

CC1(COc2nc(NC3CCN(S(C)(=O)=O)CC3)ncc2C#N)CCCC1	> 8.00

Hey, CDK4/Cyclin D1 (Homo sapiens (Human), UniProt P11802) data for Cc1cnc(Nc2ccc(S(N)(=O)=O)cc2)nc1O[C@@H]1CCC[C@@H]1O (single isomer, unassigned) [Example 132a] : pIC50 came out at 6.00 to 7.00

Hey, CDK4/Cyclin D1 (Homo sapiens (Human), UniProt P11802) data for Cn1cc(S(=O)(=O)N2CCC(Nc3ncc(C(F)(F)F)c(OC4CCOCC4(C)O)n3)CC2)cn1 (single isomer, unassigned) [Example 125b] : pIC50 came out at 6.00 to 7.00

====

biological target: CDK2/CyclinE1 (Homo sapiens (Human), UniProt P24941); experiment: CDK2/CyclinE1 kinase inhibitory activity (Caliper mobility shift); details: read-out: CDK2/Cyclin El IC50
pIC50: −log10 of the molar value.
pIC50 by entry:

Recorded pIC50, per entry:
CC1(O)CC(F)(F)CC1Oc1nc(NC2CCN(S(=O)(=O)CC3CC3)CC2)ncc1C#N (single isomer, unassigned) [Example 44a]	7.00 to 8.00
CC(C)CS(=O)(=O)N1CCC(Nc2ncc(C#N)c(OC3CCCC3(C)O)n2)CC1 (single isomer, unassigned) [Example 39a]	> 8.00
[2H]C([2H])([2H])NS(=O)(=O)c1ccc(Nc2ncc(CC)c(OC3COCC3(C)O)n2)cc1 (single isomer, unassigned) [Example 150a]	> 8.00
NS(=O)(=O)c1ccc(Nc2ncc(C(F)(F)F)c(OC3CCCCCC3O)n2)cc1 (single isomer, unassigned) [Example 118a]	> 8.00
O=S(=O)(NC1CC1)c1ccc(Nc2ncc(C(F)(F)F)c(OC3CCCC3O)n2)cc1 (single isomer, unassigned) [Example 107a]	> 8.00

Hey, CDK2/CyclinE1 (Homo sapiens (Human), UniProt P24941) data for CC(C)NS(=O)(=O)c1ccc(Nc2ncc(C#N)c(OC3CCC(O)C3)n2)cc1 (single isomer, unassigned) [Example 29a] : pIC50 came out at > 8.00

====

IC50 by entry:
target: CDK7/CyclinH/MAT1 (Homo sapiens (Human), UniProt P50613); test: CDK7/CyclinH/MAT1 kinase inhibitory activity (Caliper mobility shift)
Sequence (P50613 whole entry): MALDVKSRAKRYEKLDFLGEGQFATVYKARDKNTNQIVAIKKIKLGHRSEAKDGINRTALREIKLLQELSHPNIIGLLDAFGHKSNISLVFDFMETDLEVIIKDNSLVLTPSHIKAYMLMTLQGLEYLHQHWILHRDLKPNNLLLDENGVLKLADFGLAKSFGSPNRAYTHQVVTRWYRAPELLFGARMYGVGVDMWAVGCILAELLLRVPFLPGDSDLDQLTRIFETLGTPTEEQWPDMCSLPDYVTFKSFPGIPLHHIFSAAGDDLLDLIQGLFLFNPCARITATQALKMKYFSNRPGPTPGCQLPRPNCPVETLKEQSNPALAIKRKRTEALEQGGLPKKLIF
Sequence (P51946 whole entry partner): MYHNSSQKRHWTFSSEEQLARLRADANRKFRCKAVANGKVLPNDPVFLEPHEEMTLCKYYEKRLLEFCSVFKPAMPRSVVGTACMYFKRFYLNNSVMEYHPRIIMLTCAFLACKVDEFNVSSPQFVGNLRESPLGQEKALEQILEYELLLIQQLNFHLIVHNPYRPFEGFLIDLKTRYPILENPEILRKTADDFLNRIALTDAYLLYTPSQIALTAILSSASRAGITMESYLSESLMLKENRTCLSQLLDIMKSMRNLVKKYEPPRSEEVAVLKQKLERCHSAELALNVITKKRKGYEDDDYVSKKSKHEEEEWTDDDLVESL
Sequence (P51948 whole entry partner): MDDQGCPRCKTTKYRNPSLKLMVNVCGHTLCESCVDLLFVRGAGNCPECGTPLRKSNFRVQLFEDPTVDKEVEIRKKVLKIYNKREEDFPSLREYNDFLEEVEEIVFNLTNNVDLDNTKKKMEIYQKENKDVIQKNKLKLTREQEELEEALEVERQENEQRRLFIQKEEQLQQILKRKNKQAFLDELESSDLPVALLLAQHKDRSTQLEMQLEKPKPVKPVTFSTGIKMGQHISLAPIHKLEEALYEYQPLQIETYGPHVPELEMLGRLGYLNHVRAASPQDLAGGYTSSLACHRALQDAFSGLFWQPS

[2H]C([2H])([2H])NS(=O)(=O)c1ccc(Nc2ncc(CC)c(OC3COCC3(C)O)n2)cc1 (single isomer, unassigned) [Example 150a]	100 to 1000 nM
N#Cc1cnc(Nc2ccc(S(N)(=O)=O)cc2)nc1N1CCCC1	≥ 1000 nM
Cn1cc(S(=O)(=O)N2CCC(Nc3ncc(C#N)c(OCC4(C)CCCC4)n3)CC2)cn1	100 to 1000 nM
CC1(O)CCCC1Oc1nc(NC2CCN(S(=O)(=O)CC3CC3)CC2)ncc1C#N (single isomer, unassigned) [Example 38a]	10 to 100 nM
CS(=O)(=O)N1CCC(Nc2ncc(Br)c(OC3CCCCCC3O)n2)CC1 (single isomer, unassigned) [Example 145b]	10 to 100 nM

Lookup result for N#Cc1cnc(Nc2ccc(S(N)(=O)=O)cc2)nc1-c1cccc(O)c1 ; measured IC50: ≥ 1000 nM
